# Tested target: glutathione S-transferase (GST)-linked full-length human Syk protein (Homo sapiens, UniProt P43405)
Measured property: IC50

// known answers, use as guide
INSERT INTO results (compound_structure, result) VALUES
  ('CC[C@@H](Nc1nc(Nc2cnc(OC)c(F)c2)c(C(N)=O)cc1F)[C@H](C)N', '10 to 50 nM'),
  ('CCn1ncc2c(Nc3nc(N[C@H](CC(C)C)[C@H](C)N)c(F)cc3C(N)=O)cncc21', '< 10 nM'),
  ('CCOc1ncc(Nc2nc(N[C@H](CC)[C@H](C)N)c(F)cc2C(N)=O)cc1-n1ccnn1', '10 to 50 nM'),
  ('COCCn1ncc2cc(Nc3nc(N[C@H](c4cccc(F)c4)[C@H](C)N)c(F)cc3C(N)=O)ccc21', '< 10 nM'),
  ('CC[C@H](N)[C@@H](C)Nc1nc(Nc2cnc(C)c(-n3nccn3)c2)c(C(N)=O)cc1F', '10 to 50 nM');

Quick batch: IC50 for everything below.
1. COc1ncc(Nc2nc(N[C@H](C3CCC3)[C@H](C)N)c(F)cc2C(N)=O)cc1-n1nccn1
2. COCCNc1nn(C)c2ccc(Nc3nc(N[C@H](C4CC4)[C@H](C)N)c(F)cc3C(N)=O)cc12

A)
["< 10 nM", "10 to 50 nM"]

====

IC50 data for glutathione S-transferase (GST)-linked full-length human Syk protein (Homo sapiens) follow.

// known answers, use as guide
INSERT INTO measurements (compound_structure, measured_property, result) VALUES
  ('C[C@H](N)[C@H](Nc1nc(Nc2ccc3c(cnn3CC(F)F)c2)c(C(N)=O)cc1F)C1CC1', 'IC50', '< 0.01 µM'),
  ('CCn1ncc2c(Nc3nc(N[C@H](c4ccccc4F)[C@H](C)N)c(F)cc3C(N)=O)cccc21', 'IC50', '< 0.01 µM'),
  ('CCCC[C@@H](Nc1nc(Nc2cc(F)c3c(c2)c(OC)nn3C)c(C(N)=O)cc1F)[C@H](C)N', 'IC50', '< 0.01 µM'),
  ('CC(C)Oc1ccc(Nc2nc(N[C@@H]3CCCC[C@@H]3N)c(F)cc2C(N)=O)cc1', 'IC50', '< 0.01 µM'),
  ('C[C@H](N)[C@H](Nc1nc(Nc2ccc(F)c(F)c2)c(C(N)=O)cc1F)C1CC1', 'IC50', '0.01 to 0.05 µM');

Quick batch: IC50 for everything below.
1. CC[C@H](N)[C@H](Nc1nc(Nc2cccc3c2cnn3CC(F)F)c(C(N)=O)cc1F)C1CC1
2. CC[C@H](N)[C@@H](C)Nc1nc(Nc2cnc(C)c(F)c2)c(C(N)=O)cc1F

A)
< 0.01 µM
0.01 to 0.05 µM

====

Would you mind telling me the reported pIC50 of each entry?
# Tested target: glutathione S-transferase (GST)-linked full-length human Syk protein (Homo sapiens, UniProt P43405)
pIC50: −log10 of the molar value.

INSERT INTO results (compound, measured_property, result) VALUES
  ('CCOC[C@@H](Nc1nc(Nc2cc(OC)cc(OC)c2)c(C(N)=O)cc1F)[C@H](C)N [Example 2-268]', 'pIC50', '7.30 to 8.00'),
  ('COc1nn(C)c2c(F)cc(Nc3nc(N[C@H](C4CCC4)[C@H](C)N)c(F)cc3C(N)=O)cc12 [Example 2-158]', 'pIC50', '> 8.00'),
  ('CCn1ncc2cc(Nc3nc(N[C@@H](CN)Cc4ccccc4)c(F)cc3C(N)=O)ccc21 [Example 2-363]', 'pIC50', '7.30 to 8.00'),
  ('Cc1nn(CC(F)F)c2ccc(Nc3nc(N[C@@H]4CCOC[C@@H]4N)c(F)cc3C(N)=O)cc12 [Example 2-328]', 'pIC50', '> 8.00'),
  ('COCCn1nc(OC)c2cc(Nc3nc(N[C@H](COC)[C@H](C)N)c(F)cc3C(N)=O)ccc21 [Example 2-128]', 'pIC50', '7.30 to 8.00');

Quick batch: pIC50 for everything below.
1. COc1ccc([C@@H](Nc2nc(Nc3ccc4c(c3)c(N(C)C)nn4C)c(C(N)=O)cc2F)[C@H](C)N)cc1 [Example 2-342]
2. CCOC[C@@H](Nc1nc(Nc2cccc3c2cnn3CC)c(C(N)=O)cc1F)[C@H](C)N [Example 2-180]
3. NC(=O)c1cc(F)c(N[C@@H]2CCOC[C@@H]2N)nc1Nc1cccc2c1cnn2CC(F)F [Example 2-332]
4. COc1nn(C)c2ncc(Nc3nc(N[C@H](CC(C)C)[C@H](C)N)c(F)cc3C(N)=O)cc12 [Example 2-255]
5. Cc1nn(CC(F)F)c2ccc(Nc3nc(N[C@H](C)[C@@H](N)C4CC4)c(F)cc3C(N)=O)cc12 [Example 2-300]
6. COCCOc1cc(Nc2nc(N[C@H](Cc3ccccc3)[C@H](C)N)c(F)cc2C(N)=O)ccn1 [Example 2-427]
7. CN(C)c1nn(C)c2c(F)cc(Nc3nc(N[C@@H]4CCOC[C@@H]4N)c(F)cc3C(N)=O)cc12 [Example 2-213]

A)
7.30 to 8.00
7.30 to 8.00
> 8.00
> 8.00
7.30 to 8.00
7.30 to 8.00
> 8.00

Quick batch: pIC50 for everything below.
1. COC[C@@H](Nc1nc(Nc2cc(F)c3c(c2)c(N(C)C)nn3C)c(C(N)=O)cc1F)[C@H](C)N [Example 2-193]
2. CC[C@@H](Nc1nc(Nc2cncc3c2cnn3CC(F)F)c(C(N)=O)cc1F)[C@H](C)N [Example 2-396]
3. CC[C@@H](Nc1nc(Nc2ccc3onc(OC)c3c2)c(C(N)=O)cc1F)[C@H](C)N [Example 2-57]
4. NC(=O)c1cc(F)c(N[C@@H]2CCCC[C@@H]2N)nc1Nc1ccc(F)c(F)c1 [Example 2-447]
5. CCCC[C@@H](Nc1nc(Nc2cncc3c2cnn3CC(F)F)c(C(N)=O)cc1F)[C@H](C)N [Example 2-399]
6. C[C@H](N)[C@@H](CC1CC1)Nc1nc(Nc2cccc3c2cnn3CC(F)F)c(C(N)=O)cc1F [Example 2-21]
7. CCC[C@@H](Nc1nc(Nc2cc(F)c3c(c2)c(N(C)C)nn3C)c(C(N)=O)cc1F)[C@H](C)N [Example 2-187]
8. COCCNc1nn(CCOC)c2ccc(Nc3nc(N[C@H](C4CC4)[C@H](C)N)c(F)cc3C(N)=O)cc12 [Example 2-537]

A)
["7.30 to 8.00", "> 8.00", "> 8.00", "> 8.00", "> 8.00", "> 8.00", "> 8.00", "7.30 to 8.00"]

Reference source for all entries: patent US9051310B2
